Biological target: Adenosine receptor A1 (Homo sapiens) (UniProt P30542)
Sequence (P30542 whole entry): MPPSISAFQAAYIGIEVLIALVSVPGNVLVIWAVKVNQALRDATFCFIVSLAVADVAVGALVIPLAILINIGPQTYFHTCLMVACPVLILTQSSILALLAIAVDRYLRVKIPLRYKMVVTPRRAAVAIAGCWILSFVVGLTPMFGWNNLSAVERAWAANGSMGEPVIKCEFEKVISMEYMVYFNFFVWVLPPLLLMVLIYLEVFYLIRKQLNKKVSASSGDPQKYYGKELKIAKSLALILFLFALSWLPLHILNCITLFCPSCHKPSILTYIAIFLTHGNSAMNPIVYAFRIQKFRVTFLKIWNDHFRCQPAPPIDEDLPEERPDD
Assay: Percent change in cAMP content of CHO (Chinese hamster ovary) cells expressing human Adenosine A1 receptor at 10 uM
Assay type: functional, cell-based
OUTCOME MEASURE: Change
Number first, unit second.

The following compounds have reported results that may help.
Nc1sc2c(c1C(=O)c1ccc3ccccc3c1)CCN(Cc1ccc([N+](=O)[O-])cc1)C2 :: 26%
Nc1sc2c(c1C(=O)c1ccc(I)c3ccccc13)CCN(Cc1ccccc1)C2 :: -13%
Nc1sc2c(c1C(=O)c1cccc3ccccc13)CCC(Cc1ccccc1)C2 (stereo not given) :: -21%

Required: Change, one value per compound below.
1. Nc1sc2c(c1C(=O)c1ccc(I)c3ccccc13)CCC2
2. Cc1cc(C(=O)c2c(N)sc3c2CCN(Cc2ccccc2)C3)cc2ccccc12
3. Cc1cc(C(=O)c2c(N)sc3c2CCCC3)cc2ccc(Cl)cc12
4. Nc1sc2c(c1C(=O)c1ccc3c(c1)Cc1ccccc1-3)CCN(Cc1ccccc1)C2

Result block:
1. -75%
2. -16%
3. -13%
4. -1%

Look up Change for the entries below, preserving their order.
1. Cc1sc(N)c(C(=O)c2ccc(Br)c3ccccc23)c1C
2. Nc1sc2c(c1C(=O)c1ccc3ccccc3c1)CCC(Cc1ccccc1)C2 (stereo not given)
3. Nc1sc2c(c1C(=O)c1ccc3ccccc3c1)CCN(Cc1ccc(Cl)cc1)C2

Result block:
1: -60%; 2: 28%; 3: -6%

The values you see were collected from ChEMBL document CHEMBL1145774.
